# System Under Test: Telomerase reverse transcriptase (Homo sapiens, UniProt O14746)
# Sequence (O14746 whole entry): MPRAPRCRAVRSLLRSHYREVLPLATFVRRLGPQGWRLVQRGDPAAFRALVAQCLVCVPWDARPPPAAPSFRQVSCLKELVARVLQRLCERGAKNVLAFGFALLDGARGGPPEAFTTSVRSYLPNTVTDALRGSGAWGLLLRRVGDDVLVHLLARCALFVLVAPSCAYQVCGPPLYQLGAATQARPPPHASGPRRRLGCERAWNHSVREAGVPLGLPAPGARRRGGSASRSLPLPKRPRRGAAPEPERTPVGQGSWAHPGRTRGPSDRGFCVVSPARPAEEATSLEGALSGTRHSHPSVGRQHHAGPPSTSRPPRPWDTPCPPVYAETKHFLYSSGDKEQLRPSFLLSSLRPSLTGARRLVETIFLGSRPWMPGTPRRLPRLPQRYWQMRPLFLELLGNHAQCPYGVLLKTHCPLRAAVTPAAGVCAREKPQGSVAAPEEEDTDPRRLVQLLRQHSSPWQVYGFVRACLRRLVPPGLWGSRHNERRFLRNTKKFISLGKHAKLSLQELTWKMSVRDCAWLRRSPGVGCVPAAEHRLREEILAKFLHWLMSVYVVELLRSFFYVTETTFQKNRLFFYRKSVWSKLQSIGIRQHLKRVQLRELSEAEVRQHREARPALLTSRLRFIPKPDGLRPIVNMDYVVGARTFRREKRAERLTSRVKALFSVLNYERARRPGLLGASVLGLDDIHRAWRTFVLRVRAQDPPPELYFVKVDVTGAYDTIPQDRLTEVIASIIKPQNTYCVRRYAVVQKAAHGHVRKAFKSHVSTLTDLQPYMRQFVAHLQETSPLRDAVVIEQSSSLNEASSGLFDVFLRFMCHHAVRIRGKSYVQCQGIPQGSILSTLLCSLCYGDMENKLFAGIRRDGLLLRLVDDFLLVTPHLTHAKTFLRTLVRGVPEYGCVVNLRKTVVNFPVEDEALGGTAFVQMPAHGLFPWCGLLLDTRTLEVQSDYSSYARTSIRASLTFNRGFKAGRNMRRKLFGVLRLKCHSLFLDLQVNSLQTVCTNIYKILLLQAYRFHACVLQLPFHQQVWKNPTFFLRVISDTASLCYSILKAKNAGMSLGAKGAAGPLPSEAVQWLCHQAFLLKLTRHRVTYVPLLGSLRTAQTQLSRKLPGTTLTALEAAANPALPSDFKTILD
# Assay Comment: Inhibition of telomerase activity in human SGC-7901 cells incubated for 24 hrs by TRAP-PCR-ELISA assay
Value Type: IC50 (µM)

Structure As Smiles	IC50 [µM]
COc1cc(OC)c(C(=O)c2ccc(OC)c(OC(=O)CCC(=O)OC[C@@H]3C=C[C@H](n4cc(C)c(=O)[nH]c4=O)O3)c2)cc1OC	6.43

[I] COc1cccc(C(=O)c2ccc(OC)c(OC(=O)CCC(=O)OC[C@@H]3C=C[C@H](n4cc(C)c(=O)[nH]c4=O)O3)c2)c1
[II] COc1ccc(C(=O)c2ccc([N+](=O)[O-])cc2)cc1OC(=O)CCC(=O)OC[C@@H]1C=C[C@H](n2cc(C)c(=O)[nH]c2=O)O1
Which of the two items, I and II , has the greater recorded IC50? Please identify the chosen entry by its label.
II
(II: 28.9 µM, I: 7.01 µM)
